Experiment: chemical genetic growth profiling, strain panel (AID 1159580);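 note: tested at 20 µM; growth read once vehicle control cultures reached saturation at 30 °C; 1 = growth at the plate median or of vehicle wells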
Conditions: S. cerevisiae deletion strains, growth OD, locus YAL013W, strain DEP1, stronger effect = lower value
The whole screen tested about 5,500 compounds, of which about 2,000 (36%) were called active. About 18% were inconclusive and are not listed. The list shows a part of the results.
Field: label. Allowed values: 1 (yes) (normalized growth < 1) or 0 (no) (normalized growth >= 1).

As a guide, the following entries are already answered.
INSERT INTO measurements (compound, label_value) VALUES
  ('CNC(=O)Oc1ccc2c(c1)[C@]1(C)CCN(C)[C@@H]1N2C', '0 (no)'),
  ('O=c1cc(-c2ccccc2)oc2cc(O)cc(O)c12', '1 (yes)'),
  ('CC(CCC(=O)O)[C@H]1CCC2C3CC[C@@H]4C[C@H](O)CC[C@]4(C)C3CC[C@@]21C (stereo not given in full)', '1 (yes)');

## Input Check if normalized growth falls below 1 for COC(=O)c1c(C)cc(OC(=O)c2c(C)cc(O)c(C=O)c2O)c(C)c1O .
## Output 1 (yes)

## Input Does the reported normalized growth of COC(=O)CCC(C)[C@H]1CCC2C3C(C[C@H](O)[C@@]21C)[C@@]1(C)CC[C@@H](O)C[C@H]1C[C@H]3O (stereo not given in full) stay below 1?
## Output 0 (no)

## Input Bench note: check whether O=C(O)Cc1cc(I)c(Oc2cc(I)c(O)c(I)c2)c(I)c1 shows normalized growth below 1
## Output 1 (yes)

## Input Lab note: confirm whether the reported normalized growth for this compound is below 1, equality not counting. compound: CC(=O)c1ccc(-c2ccc(Cl)c(Cl)c2)o1
## Output 1 (yes)

## Input # check: normalized growth < 1 for O=C(Nc1ccccc1)Nc1ccc(C(F)(F)F)cc1Br
## Output 1 (yes)

---

Assay: chemical genetic growth profiling, strain panel (AID 1159580)
Details: S. cerevisiae deletion strains, growth OD, locus YDR334W, strain swr1, stronger effect = lower value
The campaign covered roughly 5,500 compounds. About 2,000 (36%) were called active. About 18% were inconclusive and are not listed. The list shows a part of the results.
normalized growth: recorded values

INSERT INTO measurements (compound, measured_property, recorded_value) VALUES
  ('c1ccc2nc(N3CCNCC3)ccc2c1', 'normalized growth', '1.01 (inactive)');

Continue with the compound presented below.
## Input Give normalized growth for CC(CCC(=O)O)[C@H]1CCC2C3C[C@H](O)[C@@H]4C[C@H](O)CC[C@]4(C)C3CC[C@@]21C (stereo not given in full)
## Output 0.99 (inactive)

---

A collection of compounds and their measured normalized growth
Experiment: chemical genetic growth profiling, strain panel (AID 1159580)
Conditions: S. cerevisiae deletion strains, growth OD, locus YPL078C, strain atp4, stronger effect = lower value
Among all 5,500 compounds or so, about 2,000 (36%) were called active. About 18% were inconclusive and are not listed. Some of the results follow.
Could you keep your reply to the number by itself?

Below are worked cases with known answers.
INSERT INTO assay_data (compound, measured_property, recorded_value) VALUES
  ('CO[C@]12C[C@@H](COC(=O)c3cncc(Br)c3)CN(C)[C@@H]1Cc1cn(C)c3cccc2c13', 'normalized growth', 0.975),
  ('CN(C(=O)CN(CCO)CC(=O)N(C)C(C)(C)Cc1ccccc1)C(C)(C)Cc1ccccc1', 'normalized growth', 1.01);

## Input Provide measured normalized growth value, entry: COc1cc([C@@H]2c3cc4c(cc3[C@H](OC(C)=O)[C@H]3COC(=O)[C@@H]23)OCO4)cc(OC)c1OC
## Output 0.978

## Input Quote normalized growth reported for NNCCc1ccccc1 please.
## Output 1

## Input Look up and report measured normalized growth for this entry: Cc1cc(C)cc(OCC2CNC(=O)O2)c1 (stereo unspecified)
## Output 0.973

## Input Please supply the value of reported normalized growth for the item CSc1ccc2c(c1)N(CCC1CCCCN1C)c1ccccc1S2 (stereo unspecified)
## Output 0.989

## Input Fill in reported normalized growth for this entry: CN(C)C(=O)Nc1ccc(Cl)c(Cl)c1
## Output 0.988

## Input Given the compound CCN(CCCc1ccccc1)CCCc1ccccc1 , write its reported normalized growth.
## Output 0.932

---

Test: chemical genetic growth profiling, strain panel (AID 1159580)
Details: S. cerevisiae deletion strains, growth OD, locus YGL086W, strain mad1, stronger effect = lower value
Out of some 5,500 compounds screened, about 2,000 (36%) were called active. About 18% were inconclusive and are not listed. The list shows a part of the results. Where a SMILES comes first, the peptide text is derived from it.
Lab note: cut-off is 1. Strictly less in normalized growth is true (1). Exactly 1 or more is false (0).

As a guide, the following entries are already answered.
INSERT INTO measurements (compound, label_value) VALUES
  ('CN(C)CCOC(=O)COc1ccc(Cl)cc1', 'false (0)'),
  ('NCCCCC(N)C(=O)NC(Cc1ccc(O)cc1)C(=O)NC(CCCCN)C(=O)O (stereo not drawn) (H-Lys-Tyr-Lys-OH; configuration not given here)', 'true (1)');

Turning now to a further record.
## Input Does the reported normalized growth of the following compound sit strictly below 1? N#C/C(=C\c1cccc(O)c1)C(=O)O
## Output false (0)

---

Experiment: chemical genetic growth profiling, strain panel (AID 1159580);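 note: tested at 20 µM; growth read once vehicle control cultures reached saturation at 30 °C; 1 = growth at the plate median or of vehicle wells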
Conditions: S. cerevisiae deletion strains, growth OD, locus YJL154C, strain vps35, stronger effect = lower value
The campaign covered roughly 5,500 compounds. About 2,000 (36%) were called active. Roughly 18% stayed inconclusive and do not appear here. This is one part of the list.
Mark true (1) only for normalized growth values smaller than 1; exact matches and larger values are false (0).

INSERT INTO measurements (compound, label_value) VALUES
  ('O=C(Nc1ccccc1)Nc1ccccc1', 'true (1)');

## Input hey, is normalized growth for C[C@H](CCC(=O)O)[C@H]1CCC2C3C(CC[C@@]21C)[C@@]1(C)CC[C@@H](O)C[C@H]1C[C@H]3O (some centres not stated) lower than 1 or not?
## Output false (0)

---

Experiment: chemical genetic growth profiling, strain panel (AID 1159580);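 note: tested at 20 µM; growth read once vehicle control cultures reached saturation at 30 °C; 1 = growth at the plate median or of vehicle wells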
Conditions: S. cerevisiae deletion strains, growth OD, locus YLL041C, strain sdh2
About 2,000 (36%) of roughly 5,500 compounds were called active. About 18% were inconclusive and are not listed. Rule as the data show it: active = normalized growth mostly below about 0.91 (no sharp cut-off); inconclusive = no clear call, values can overlap the other calls; inactive = mostly above about 0.92. Some of the results follow.
Select the matching outcome among T (active), F (inactive)

INSERT INTO results (compound, label_value) VALUES
  ('Cc1cc(=O)oc2c(O)c(O)ccc12', 'F'),
  ('Cc1nc2ccccn2c(=O)c1CCN1CCC(C(=O)c2ccc(F)cc2)CC1', 'F'),
  ('COc1cc(C)c(C(=O)Oc2cc(C)c(C(=O)O)c(O)c2C)c(OC)c1C', 'F'),
  ('CC1(C)C(O)CC(O)C2(C)C1CC(O)C1(C)C2CCC2(C)C(c3ccoc3)OC(=O)C3OC321 (stereo not given)', 'F'),
  ('O=c1[nH]cnc2[nH]ncc12', 'F'),
  ('CCCCS(=N)(=O)CCC(N)C(=O)O (stereo not given)', 'F'),
  ('O=c1cc(-c2ccccc2)oc2cc(O)c(O)cc12', 'F'),
  ('C=C1C(C2(C)C=CC(=O)C(C)(C)C2CC(=O)OC)CC[C@@]2(C)[C@H](c3ccoc3)OC(=O)C3OC132 (stereo not given in full)', 'F'),
  ('O=c1cc(-c2ccc(O)cc2)oc2cc(O)cc(O)c12', 'F'),
  ('C[C@@H]1O[C@@H](O[C@H]2C[C@@H](O)[C@]3(CO)C4C(CC[C@]3(O)C2)[C@@]2(O)CC[C@H](C3=CC(=O)OC3)[C@@]2(C)C[C@H]4O)[C@H](O)[C@H](O)[C@H]1O (stereo not given in full)', 'F');

## Input Please let me know the test result on file for C=C1C2=CC(=O)O[C@@H](c3ccoc3)[C@]2(C)CCC1[C@@]1(C)C=CC(=O)C(C)(C)[C@@H]1CC(=O)OC (stereo not given in full) .
## Output F

---

Experiment: chemical genetic growth profiling, strain panel (AID 1159580);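 note: tested at 20 µM; growth read once vehicle control cultures reached saturation at 30 °C; 1 = growth at the plate median or of vehicle wells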
Conditions: S. cerevisiae deletion strains, growth OD, strain wtn01, stronger effect = lower value
About 2,000 (36%) of roughly 5,500 compounds were called active. Inconclusive results (about 18%) are left out. Some of the results follow.
Measured property: normalized growth
Could you respond with only the numeric value?

INSERT INTO results (compound, recorded_value) VALUES
  ('CCCCC[C@H](CC(=O)NO)C(=O)N[C@H](C(=O)N1CCC[C@H]1CO)C(C)C', 1.01),
  ('C=C1C(C2(C)C=CC(=O)C(C)(C)C2CC(=O)OC)CC[C@@]2(C)[C@H](c3ccoc3)OC(=O)C3OC132 (stereo partly drawn)', 0.956),
  ('C=C1[C@H]2CC[C@@]3(C)[C@H](c4ccoc4)OC(=O)C[C@]13O[C@H]1C[C@H](O)C(C)(C)[C@H](CC(=O)OC)[C@]12C', 1.01),
  ('COC(=O)CCCOc1ccc(Cl)cc1Cl', 0.995),
  ('CN(C)CCOC(=O)COc1ccc(Cl)cc1', 1.04),
  ('C=C1C2CC[C@@]3(C)[C@H](c4ccoc4)OC(=O)C[C@]13O[C@H]1CC(O)C(C)(C)C(CC(=O)OC)[C@@]21C (stereo partly drawn)', 1.01),
  ('C=C1C2=CC(=O)O[C@@H](c3ccoc3)[C@]2(C)CCC1[C@@]1(C)C=CC(=O)C(C)(C)[C@@H]1CC(=O)OC (stereo partly drawn)', 0.978);

Continue with the compound presented below.
## Input Answer with the recorded normalized growth for the compound listed here: C=C1C2CC[C@@]3(C)[C@H](c4ccoc4)OC(=O)C[C@]13O[C@H]1CC(=O)C(C)(C)C(CC(=O)OC)[C@@]21C (stereo partly drawn)
## Output 0.987
